Test system: 429239-143-T-J1-PDC complex spheroid viability;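 note: luminescence signal used as surrogate measure of viable cells; spheroids exposed to compounds for seven days before readout; 100% = DMSO vehicle control viability as luminescence relative to vehicle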
Test: Anticancer human tumor 429239-143-T-J1-PDC patient-derived small cell lung carcinoma cell line growth inhibition [POLQ]
Conditions: second compound 3.16 µM; first compound 10 µM; active compounds read low
// values below are reported viability, T/C

Please review the following examples before continuing.
compound	result
Nc1ccn(C2OC(CO)C(O)C2(F)F)c(=O)n1 (stereo unspecified) + Nc1ccc(C#CCN(C(=O)Cc2ncc(C(F)(F)F)cc2C(F)(F)F)c2ccc(F)cc2)nn1	8.77%
C#Cc1c(F)ccc2cc(O)cc(-c3ncc4c(N5CC6CCC(C5)N6)nc(OCC56CCCN5CC(F)C6)nc4c3F)c12 (stereo unspecified) + Nc1ccc(C#CCN(C(=O)Cc2ncc(C(F)(F)F)cc2C(F)(F)F)c2ccc(F)cc2)nn1	96.8%

Lookup: For the record CC1COCCN1c1cc(-c2ccnn2C)c2ccnc(-c3ccn[nH]3)c2n1 (stereo unspecified) + Cc1cccc(N(C)C(=O)C2C(O)CCN2c2nc(C)cc(C(F)(F)F)c2C#N)c1 , what value of viability, T/C is listed for 429239-143-T-J1-PDC complex spheroid viability?
Found: 10.4%

Lookup: For the record CNCc1ccc(-c2[nH]c3cc(F)cc4c3c2CCNC4=O)cc1 + Cc1cccc(N(C)C(=O)C2C(O)CCN2c2nc(C)cc(C(F)(F)F)c2C#N)c1 , what value of viability, T/C is listed for 429239-143-T-J1-PDC complex spheroid viability?
Found: 22%

Lookup: For the record O=C(Nc1ccc(O)c(NS(=O)(=O)c2ccc(F)cc2)c1)c1ccc(-c2ccccc2)cc1 + Nc1ccc(C#CCN(C(=O)Cc2ncc(C(F)(F)F)cc2C(F)(F)F)c2ccc(F)cc2)nn1 , what value of viability, T/C is listed for 429239-143-T-J1-PDC complex spheroid viability?
Found: 106%

Lookup: For the record O=C(c1cc(Cc2n[nH]c(=O)c3ccccc23)ccc1F)N1CCN(C(=O)C2CC2)CC1 + Nc1ccc(C#CCN(C(=O)Cc2ncc(C(F)(F)F)cc2C(F)(F)F)c2ccc(F)cc2)nn1 , what value of viability, T/C is listed for 429239-143-T-J1-PDC complex spheroid viability?
Found: 8.47%
